- EXPERIMENTAL_TARGET: RXFP2 (Homo sapiens, UniProt Q8WXD0)
- Construct: purchased Promega (in-house HiBiT-GPCR construct library, NanoBRET)
- Sequence (Q8WXD0 whole entry): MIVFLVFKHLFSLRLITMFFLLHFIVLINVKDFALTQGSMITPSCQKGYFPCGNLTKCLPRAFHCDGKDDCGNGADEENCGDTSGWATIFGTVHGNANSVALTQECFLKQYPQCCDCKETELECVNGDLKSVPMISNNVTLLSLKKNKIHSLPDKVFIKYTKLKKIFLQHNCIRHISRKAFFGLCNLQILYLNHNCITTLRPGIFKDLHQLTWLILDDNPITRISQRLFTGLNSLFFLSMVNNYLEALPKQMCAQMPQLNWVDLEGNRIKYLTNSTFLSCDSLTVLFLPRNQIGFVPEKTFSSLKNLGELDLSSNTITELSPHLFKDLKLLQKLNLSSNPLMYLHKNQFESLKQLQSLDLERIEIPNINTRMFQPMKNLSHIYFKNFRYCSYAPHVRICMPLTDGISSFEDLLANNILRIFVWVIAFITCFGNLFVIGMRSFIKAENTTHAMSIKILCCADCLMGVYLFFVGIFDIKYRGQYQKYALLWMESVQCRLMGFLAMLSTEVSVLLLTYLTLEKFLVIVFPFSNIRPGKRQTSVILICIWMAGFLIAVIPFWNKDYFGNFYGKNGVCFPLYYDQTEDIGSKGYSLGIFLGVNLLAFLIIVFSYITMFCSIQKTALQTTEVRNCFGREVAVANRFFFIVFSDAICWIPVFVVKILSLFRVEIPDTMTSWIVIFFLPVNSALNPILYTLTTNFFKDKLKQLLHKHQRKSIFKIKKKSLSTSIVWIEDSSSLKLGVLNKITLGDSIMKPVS
- ASSAY_DETAILS: NanoBRET screen HiBiT-RXFP2 in HEK293
- Format: binding
- ASSAY_CONDITIONS: RXFP2; tracer 0.1μM

COMPOUND	EXPERIMENTAL_TARGET	NanoBRET Fold Response
CC(C)N(CC[C@H](c1ccccc1)c1cc(CCNC(=O)CCOCCOCCOCCOCCNC(=O)CCc2ccc3n2[B-](F)(F)[N+]2=C(c4ccc[nH]4)C=CC2=C3)ccc1O)C(C)C	RXFP2 (Homo sapiens, UniProt Q8WXD0)	1.11
O=C(CCc1ccc2n1[B-](F)(F)[N+]1=C(c3ccc[nH]3)C=CC1=C2)NCCOCCOCCNC(=O)OCCOCCN1CCN(C2=Nc3ccccc3Sc3ccccc32)CC1	RXFP2 (Homo sapiens, UniProt Q8WXD0)	1.31
Cc1cc2c(s1)Nc1ccccc1N=C2N1CCN(CCCNC(=O)CCOCCOCCOCCOCCNC(=O)CCc2ccc3n2[B-](F)(F)[N+]2=C(c4ccc[nH]4)C=CC2=C3)CC1	RXFP2 (Homo sapiens, UniProt Q8WXD0)	0.27
O=C(CCc1ccc2n1[B-](F)(F)[N+]1=C(c3ccc[nH]3)C=CC1=C2)NCc1ccc(C(=O)NCCOCCC(=O)N[C@@H]2CC[C@@]3(O)[C@H]4Cc5ccc(O)c6c5[C@@]3(CCN4CC3CC3)[C@H]2O6)cc1 [Naltrexone-3-NB590]	RXFP2 (Homo sapiens, UniProt Q8WXD0)	1.31
O=C(CCOCCOCCOCCOCCNC(=O)CCc1ccc2n1[B-](F)(F)[N+]1=C(c3ccc[nH]3)C=CC1=C2)NCCCN1CCN(C2=Nc3ccccc3Oc3ccc(Cl)cc32)CC1	RXFP2 (Homo sapiens, UniProt Q8WXD0)	0.94

Entry source: paper PMC8151276
